- test: In vivo pharmacokinetics of 14·3HCl in rats
- Parameters: species or system Sprague–Dawley rats
- protocol_conditions: male, Sprague-Dawley, rat, plasma, po, 10 mg/kg
parameter: AUC(0-inf) (ng·h/mL)

Cc1ccc2c(c1)nc(/C=C/c1cccc3cccnc13)n2-c1cccc(OCCCN2CCN(C)CC2)c1.Cl [Compound 14·3HCl] | 3550

---

- target_entity: PDE3A (679–1087) (Homo sapiens)
- Sequence (Q14432 679-1087): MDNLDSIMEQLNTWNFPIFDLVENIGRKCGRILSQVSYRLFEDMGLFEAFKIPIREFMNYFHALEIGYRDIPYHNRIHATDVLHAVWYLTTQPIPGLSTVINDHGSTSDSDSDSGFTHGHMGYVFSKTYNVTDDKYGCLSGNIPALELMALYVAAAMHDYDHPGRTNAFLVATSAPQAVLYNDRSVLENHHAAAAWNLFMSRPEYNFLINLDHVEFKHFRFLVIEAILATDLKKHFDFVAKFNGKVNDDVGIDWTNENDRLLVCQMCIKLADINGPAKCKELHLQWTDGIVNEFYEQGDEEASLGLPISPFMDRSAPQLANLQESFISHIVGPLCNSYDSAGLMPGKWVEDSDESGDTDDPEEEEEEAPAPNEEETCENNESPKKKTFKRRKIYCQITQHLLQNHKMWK
pIC50: −log10 of the molar value.
parameter: pIC50

Cc1ccc2c(c1)nc(/C=C/c1cccc3cccnc13)n2-c1cccc(OCCCN2CCN(C)CC2)c1.Cl [Compound 14·3HCl] | < 5.00

---

- test: In vivo pharmacokinetics of 14·3HCl in rats
- Parameters: species or system Sprague–Dawley rats
- protocol_conditions: male, Sprague-Dawley, rat, plasma, po, 10 mg/kg
parameter: MRT last (h)

Cc1ccc2c(c1)nc(/C=C/c1cccc3cccnc13)n2-c1cccc(OCCCN2CCN(C)CC2)c1.Cl [Compound 14·3HCl] | 8.4
